target: Glucose transporter (Leishmania mexicana); assay: ST_JUDE_LEISH: Cytotoxicity at 2uM final concentration against transgenic Leishmania Mexicana promastigotes LmGT2 that are glucose transport deficient and complemented with the L. Mexicana glucose transporter 2. Activity is measured by DNA content using SYBR green in vitro; type: functional

compound: CCNC(C)(C)CN(Cc1ccc(-c2ccc(C(F)(F)F)cc2)cc1)C(=O)Cn1c(SCc2ccc(F)cc2)nc(=O)c2c1CCC2
measurementUnits: %
inhibition: 5.46

compound: CCOc1ccccc1CNc1nccc(NCCc2cn(C)c3ccccc23)n1
measurementUnits: %
inhibition: 2.49

compound: O=C(Nc1ccc(OC2CCN(Cc3ccccc3)CC2)c(Cl)c1)c1ccc(F)cc1
measurementUnits: %
inhibition: 1.68

compound: O=c1c2sc(-c3ccc(Cl)cc3)cc2ncn1Cc1ccc(OCCN2CCCC2)c2ccccc12
measurementUnits: %
inhibition: 1.85

compound: Clc1ccc(Sc2cncnc2N2CCOCC2)cc1
measurementUnits: %
inhibition: -0.01

compound: CCn1cc(-c2cc(C(=O)Nc3ccc(OC)cc3C)c3ccccc3n2)c(C)n1
measurementUnits: %
inhibition: 3.97

compound: Cc1ccc(Oc2c(-c3ccccc3CN3CCCC3CN(C)C)cnn(C)c2=O)cn1 (stereo not drawn)
measurementUnits: %
inhibition: 5.57

compound: COc1ccccc1-c1nc2c(ccc3nc(N)nc(N)c32)[nH]1
measurementUnits: %
inhibition: 4.58

compound: O=C1OC(c2ccccc2)(c2ccccc2)CN1C1CCN(Cc2ccc(O)c(Cl)c2)C1 (stereo not drawn)
measurementUnits: %
inhibition: -0.68

compound: CC(=O)Nc1nnc(SCc2c(C)cc(C(C)(C)C)cc2C)s1
measurementUnits: %
inhibition: 1.06

compound: Cc1cc(NCC(C)C)c2[nH]nc(-c3ccccc3)c2n1
measurementUnits: %
inhibition: 1.69

compound: CCCN(CCC)CCCOc1ccc(C(=O)c2c(-c3ccc(OCCCN(CCC)CCC)cc3)oc3ccc(Cl)cc23)cc1
measurementUnits: %
inhibition: 31.1

compound: COC(=O)C(Cc1ccccc1)C(CSCc1ccc(OC)cc1)C(=O)N[C@@H](C(=O)OC(C)(C)C)c1ccc(C(C)(C)C)cc1 (stereo partly drawn)
measurementUnits: %
inhibition: 5.18

compound: NC(=O)C1CCN(Cc2cccc(-c3cccc(-c4nc5cc(F)ccc5[nH]4)c3)c2)CC1
measurementUnits: %
inhibition: 1.45

compound: CC(C)(C)N1CCC(N(Cc2ccc(-c3ccc(C(F)(F)F)cc3)cc2)C(=O)Cn2c(CCc3cccc(F)c3F)cc(=O)c3cccnc32)CC1
measurementUnits: %
inhibition: -1.6

compound: Cc1cccc2nc(-c3ccc(-c4cccc(CNCC5CCCO5)c4)s3)[nH]c12 (stereo not drawn)
measurementUnits: %
inhibition: 11.3

compound: O=[N+]([O-])c1cccc(CNC2CCN(Cc3ccc4ccccc4c3)CC2)c1
measurementUnits: %
inhibition: 10.9

compound: COc1cc(C(=O)NCCCN2CCN(c3cccc(Cl)c3)CC2)ccc1-c1cc2cc(Cl)c(Cl)cc2[nH]1
measurementUnits: %
inhibition: 3.53

compound: Cc1cc(N2CCOCC2)nc2ccc(NC(=O)c3ccc(Cl)c([N+](=O)[O-])c3)cc12
measurementUnits: %
inhibition: 2.75

compound: Cc1cccc2nc(-c3ccc(-c4cccc(CN5CC(C)OC(C)C5)c4)s3)[nH]c12 (stereo not drawn)
measurementUnits: %
inhibition: 4.91

compound: Cc1[nH]c(C)c(-c2ccc(-c3ccc(OC(F)(F)F)cc3)nc2)c(=O)c1Br
measurementUnits: %
inhibition: 8.85

compound: CCCC(C)Nc1nc(C)cc(N[C@@H](Cc2ccccc2)C(=O)Nc2ccc(OC)cc2)n1 (stereo partly drawn)
measurementUnits: %
inhibition: 0.54

compound: CC1=C(C(=O)Nc2ccc(Cl)cc2)C(c2ccncc2)n2nc(C(F)(F)F)nc2N1 (stereo not drawn)
measurementUnits: %
inhibition: -2.29

compound: CCn1cc(CN2CCCC(C(=O)Nc3ccc(-c4nc5ccccc5[nH]4)cc3)C2)cn1 (stereo not drawn)
measurementUnits: %
inhibition: 2.06

compound: COc1cc2ncnc(NCCc3ccccc3Cl)c2cc1OC
measurementUnits: %
inhibition: -0.92

compound: CCOc1cc(C(=O)NCC2CCN(CC3CCCCC3)CC2)ccc1-c1nc2cc(Cl)ccc2[nH]1
measurementUnits: %
inhibition: 1.19

compound: O=C(/C=C/c1ccc(Cl)c(Cl)c1)NCCCCCN1CCCN(C(=O)Nc2ccc(Br)cc2)CC1
measurementUnits: %
inhibition: 10.2

compound: Cc1noc(C)c1-c1cccc(CNCc2cccc(-c3cccc(-c4nc5cc(F)ccc5[nH]4)c3)c2)c1
measurementUnits: %
inhibition: 0.55

compound: COc1ccc2nccc([C@@H](O)CN3CCC(NCc4ccc5c(n4)NCCC5)CC3)c2c1
measurementUnits: %
inhibition: 6.5

compound: CCCCCCc1cc(OC)c(OC)cc1C(C)Nc1ccnc2cc(Cl)ccc12 (stereo not drawn)
measurementUnits: %
inhibition: 0.14

compound: CCCC(C)Nc1nc(C)cc(N[C@@H](CC(C)C)C(=O)NCc2ccc(C)cc2)n1 (stereo partly drawn)
measurementUnits: %
inhibition: 0.38

compound: COc1ccc2nccc(N3CCC(NCCNCc4ccc5c(n4)NC(=O)CO5)C3)c2n1 (stereo not drawn)
measurementUnits: %
inhibition: 1.15

compound: COc1ccc(CNC2CCN(C)CC2)cc1-c1ccc(S(=O)(=O)NCCc2ccccn2)c(F)c1
measurementUnits: %
inhibition: 4.77

compound: COc1ccc(CSC2CCCCC23NC(=S)NC3=S)cc1 (stereo not drawn)
measurementUnits: %
inhibition: 3.2

compound: COc1ccc(NC(=O)/C=C/c2ccccc2Cl)cc1OCCN1CCC(N2CCCCC2)CC1
measurementUnits: %
inhibition: 7.17

compound: CC(C)CC(C)NC(=O)C1Cc2c([nH]c3ccc(F)cc23)C2(CCN(Cc3ccccc3)CC2)N1 (stereo not drawn)
measurementUnits: %
inhibition: 7.75

compound: Cc1ccccc1C1CCN(c2ccc(NC(=O)c3ccc(Cl)nc3)cc2)CC1
measurementUnits: %
inhibition: 3.84

compound: Cn1c(=N)n(CC(=O)OCc2ccc(OCc3ccccc3)cc2)c2ccccc21
measurementUnits: %
inhibition: 1.49
